SYSTEM NAME: Pim-1 stably transfected into the U2OS human osteogenic sarcoma line (Homo sapiens, UniProt P11309)
Construct: expressed in transfected cells; host or cells: U2OS human osteogenic sarcoma line
Sequence (P11309 whole entry): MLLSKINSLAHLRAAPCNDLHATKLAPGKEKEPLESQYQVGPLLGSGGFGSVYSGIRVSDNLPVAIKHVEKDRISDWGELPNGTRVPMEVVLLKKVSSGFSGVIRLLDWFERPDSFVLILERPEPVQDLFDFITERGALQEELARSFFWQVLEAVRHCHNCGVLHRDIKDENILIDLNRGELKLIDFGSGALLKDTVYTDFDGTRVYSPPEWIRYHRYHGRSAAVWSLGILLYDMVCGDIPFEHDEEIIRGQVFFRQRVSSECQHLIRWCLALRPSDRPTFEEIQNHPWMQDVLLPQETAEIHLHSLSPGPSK
TEST METHOD NOTES: Pim cell assay, phospho-BAD normalized against total BAD, U2OS stably transfected with Pim-1
Assay type: cell-based
EXPERIMENTAL CONDITIONS: U2OS stably transfected with Pim-1; phospho-BAD normalized against total BAD; 29 min incubation; read-out: Pim1_Cell_IC50_
Experimental: The cell lines used in the assay were generated by the stable transfection of either Pim-1 or Pim-2 into the U2OS human osteogenic sarcoma line. […] These prepared lysates were then assayed for phospho and total BAD according to the manufacturer's protocols (Meso Scale Diagnostics, Cat# K15103C-3 & # K15103D-3). The plates were read on the MSD Sector Imager 6000, and results were calculated according to the assay protocols ((% Phosphoprotein=((2×Phospho signal)/(Phospho signal+Total signal))×100)).
MEASURE: IC50 (nM)
Kindly answer with a numeric value in nM, unit omitted.

Note to self: IC50 recorded for `COC(=O)c1ccc2[nH]nc(-c3cncc(NC4CCNCC4)n3)c2c1` was 202

Note to self: IC50 recorded for `c1cc2[nH]nc(-c3cncc(C4CC4)n3)c2cc1-c1cncc(C2CC2)n1` was 169

Note to self: IC50 recorded for `CC(C)OC(=O)c1ccc2[nH]nc(-c3cncc(NC4CCNCC4)n3)c2c1` was 394

Note to self: IC50 recorded for `NC1CCN(c2nc(-c3c[nH]c4ccc(-c5c(F)cccc5F)cc34)cc(=O)[nH]2)CC1` was 2470

* * *

Please respond with reported IC50 for every item in the list.
SYSTEM NAME: Pim-1 stably transfected into the U2OS human osteogenic sarcoma line (Homo sapiens, UniProt P11309)
Construct: expressed in transfected cells; host or cells: U2OS human osteogenic sarcoma line
TEST METHOD NOTES: Pim cell assay, phospho-BAD normalized against total BAD, U2OS stably transfected with Pim-1
Type: cell-based
EXPERIMENTAL CONDITIONS: U2OS cells stably transfected with Pim-1, phospho-BAD; high dose […]; read-out: Pim1_Cell_IC50

Note to self: IC50 recorded for Fc1cccc(Cl)c1-c1ccc2[nH]cc(-c3cncc(O[C@@H]4CCCNC4)n3)c2c1 [Example 26, bis(2,2,2-trifluoroacetate)] was 514 nM

Note to self: IC50 recorded for `COc1ccc2c(-c3ccc4[nH]nc(-c5cncc(N6CCC(N)CC6)n5)c4c3)ccnc2c1` was 269 nM

Note to self: IC50 recorded for `NC1CCN(c2cncc(-c3n[nH]c4ccc(-c5cn6ccnc6cn5)cc34)n2)CC1` was 4720 nM

Note to self: IC50 recorded for `c1cn2cc(-c3ccc4[nH]nc(-c5cncc(O[C@@H]6CCCNC6)n5)c4c3)ncc2n1` was 921 nM

* * *

SYSTEM NAME: full length recombinant Pim-1 protein (Homo sapiens, UniProt P11309)
Construct: by full length recombinant Pim-1, Pim-2, or Pim-3 protein; hexahistidine tag followed by a thrombin cleavage site (N); made in house; host or cells: Sf9 (baculovirus) or E. coli (pET28)
TEST METHOD NOTES: Pim-1 enzyme assay (HTRF, phosphorylation of biotinylated-BAD (S112) peptide)
Assay type: biochemical
EXPERIMENTAL CONDITIONS: read-out: Pim_1_IC50
Please assign no whenever IC50 is at or above 70 nM, and yes whenever it is below.

Input line: Please indicate whether the reported IC50 of NC1CCN(c2ccnc(-c3n[nH]c4ccc(-c5c(F)cccc5F)cc34)n2)CC1 [Example 516] is strictly below 70 nM.
Output line: yes

Input line: Please indicate whether the reported IC50 of COc1cc(N2CCC(N)CC2)nc(-c2n[nH]c3ccc(-c4c(F)cccc4F)cc23)n1 [Example 472] is strictly below 70 nM.
Output line: no

Input line: Please indicate whether the reported IC50 of O=C(O)c1ccc2[nH]cc(-c3cncc(N[C@@H]4CCCNC4)n3)c2c1 [Example 538] is strictly below 70 nM.
Output line: no

Input line: Please indicate whether the reported IC50 of c1ccc(Nc2ccc3[nH]nc(-c4cncc(O[C@H]5CNCCC56CC6)n4)c3c2)cc1 [Example 251] is strictly below 70 nM.
Output line: yes

Input line: Please indicate whether the reported IC50 of OC1CN(c2cncc(-c3n[nH]c4ccc(-c5c(F)cccc5F)cc34)n2)CC1O (stereo not shown) [Example 449] is strictly below 70 nM.
Output line: no

Input line: Please indicate whether the reported IC50 of c1cc(-c2ccc3[nH]nc(-c4cncc(O[C@@H]5CCCNC5)n4)c3c2)nc(C2CC2)n1 [Example 361] is strictly below 70 nM.
Output line: yes

Input line: Please indicate whether the reported IC50 of CC(C)c1ccc2[nH]nc(-c3cncc(O[C@H]4CNCCC45CC5)n3)c2c1 [Example 253] is strictly below 70 nM.
Output line: yes

Input line: Please indicate whether the reported IC50 of NC(=O)c1ccc(F)c(-c2ccc3[nH]nc(-c4cncc(OCCF)n4)c3c2)c1 [Example 390] is strictly below 70 nM.
Output line: no

Input line: Please indicate whether the reported IC50 of OCc1ccc(-c2ccc3[nH]cc(-c4cncc(O[C@@H]5CCCNC5)n4)c3c2)cc1 [Example 316] is strictly below 70 nM.
Output line: yes

Input line: Please indicate whether the reported IC50 of O[C@@H]1CN(c2cncc(-c3n[nH]c4ccc(-c5c(F)cccc5F)cc34)n2)C[C@@H]1O [Example 448] is strictly below 70 nM.
Output line: no

Input line: Please indicate whether the reported IC50 of C[C@H]1COCCN1c1ccc2[nH]nc(-c3cncc(O[C@H]4CNCCC45CC5)n3)c2c1 [Example 402] is strictly below 70 nM.
Output line: yes

Input line: Please indicate whether the reported IC50 of CC(CO)c1ccc2c(c1)c(-c1cncc(O[C@H]3CNCCC34CC4)n1)nn2C (stereo partly shown) [Example 271] is strictly below 70 nM.
Output line: no

Input line: Please indicate whether the reported IC50 of C#Cc1ccccc1-c1ccc2[nH]nc(-c3cncc(O[C@H]4CNCCC45CC5)n3)c2c1 [Example 266] is strictly below 70 nM.
Output line: yes

Input line: Please indicate whether the reported IC50 of Clc1cncc(-c2ccc3[nH]cc(-c4cncc(O[C@@H]5CCCNC5)n4)c3c2)c1 [Example 505] is strictly below 70 nM.
Output line: yes

Input line: Please indicate whether the reported IC50 of CC(C)Nc1cncc(-c2n[nH]c3ccc(-c4cncc(C5CC5)n4)cc23)n1 [Example 368] is strictly below 70 nM.
Output line: yes

* * *

SYSTEM NAME: Pim-1 stably transfected into the U2OS human osteogenic sarcoma line (Homo sapiens, UniProt P11309)
Construct: expressed in transfected cells; host or cells: U2OS human osteogenic sarcoma line
TEST METHOD NOTES: Pim cell assay, phospho-BAD normalized against total BAD, U2OS stably transfected with Pim-1
Format: cell-based
EXPERIMENTAL CONDITIONS: U2OS cells stably transfected with Pim-1, phospho-BAD; high dose […]; read-out: Pim1_Cell_IC50
MEASURE: IC50 (nM)
Kindly answer with a numeric value in nM, unit omitted.

Note to self: IC50 recorded for `NC1CCN(c2cncc(-c3n[nH]c4ccc(-c5cc(C(=O)NCc6ccccc6)ccc5F)cc34)n2)CC1` was 2060

Note to self: IC50 recorded for `C1=C(c2ccc3[nH]nc(-c4cncc(O[C@@H]5CCCNC5)n4)c3c2)COCC1` was 772

Note to self: IC50 recorded for `NC1CCN(c2cncc(-c3n[nH]c4ccc(-c5cncc(F)c5)cc34)n2)CC1` was 176

Note to self: IC50 recorded for `Fc1cccc(F)c1-c1ccc2[nH]nc(-c3cncc(O[C@H]4CNC[C@@H](F)C4)n3)c2c1` was 146

Note to self: IC50 recorded for `NC1CCN(c2cncc(-c3n[nH]c4ccc(-c5ccccc5O)cc34)n2)CC1` was 533

Note to self: IC50 recorded for `CC(C)Oc1cncc(-c2ccc3[nH]nc(-c4cncc(O[C@@H]5CCCNC5)n4)c3c2)c1` was 145

Note to self: IC50 recorded for `c1cc2cc(-c3ccc4[nH]nc(-c5cncc(O[C@@H]6CCCNC6)n5)c4c3)cnc2[nH]1` was 157

Note to self: IC50 recorded for `CC(C)Nc1cncc(-c2n[nH]c3ccc(-c4c(F)cccc4F)cc23)n1` was 2460

* * *

Please respond with reported pIC50 for every item in the list.
SYSTEM NAME: Pim-2 stably transfected into the U2OS human osteogenic sarcoma line (Homo sapiens)
Construct: expressed in transfected cells; host or cells: U2OS human osteogenic sarcoma line
Sequence (Q9P1W9 whole entry): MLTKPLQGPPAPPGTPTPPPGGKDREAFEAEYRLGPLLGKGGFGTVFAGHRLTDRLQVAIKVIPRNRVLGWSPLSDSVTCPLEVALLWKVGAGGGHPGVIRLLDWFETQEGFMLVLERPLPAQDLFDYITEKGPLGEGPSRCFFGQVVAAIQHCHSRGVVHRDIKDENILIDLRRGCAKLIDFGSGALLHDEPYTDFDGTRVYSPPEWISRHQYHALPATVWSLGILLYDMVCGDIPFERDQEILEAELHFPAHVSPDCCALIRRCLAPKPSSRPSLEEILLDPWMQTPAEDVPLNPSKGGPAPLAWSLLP
TEST METHOD NOTES: Pim cell assay, phospho-BAD normalized against total BAD, U2OS stably transfected with Pim-2
Type: cell-based
EXPERIMENTAL CONDITIONS: U2OS stably transfected with Pim-2; phospho-BAD normalized against total BAD; 29 min incubation; read-out: Pim2_Cell_IC50_
Experimental: The cell lines used in the assay were generated by the stable transfection of either Pim-1 or Pim-2 into the U2OS human osteogenic sarcoma line. […] These prepared lysates were then assayed for phospho and total BAD according to the manufacturer's protocols (Meso Scale Diagnostics, Cat# K15103C-3 & # K15103D-3). The plates were read on the MSD Sector Imager 6000, and results were calculated according to the assay protocols ((% Phosphoprotein=((2×Phospho signal)/(Phospho signal+Total signal))×100)).
The read-out pIC50 is expressed as -log10 of concentration in moles per litre.

Note to self: pIC50 recorded for `CC(C)OC(=O)c1ccc2[nH]nc(-c3cncc(NC4CCNCC4)n3)c2c1` was 5.32

Note to self: pIC50 recorded for `Clc1ccccc1-c1ccc2[nH]nc(-c3cncc(O[C@H]4CNCCC45CC5)n3)c2c1` was 5.28

Note to self: pIC50 recorded for `COC(=O)c1ccc2[nH]nc(-c3cncc(NC4CCNCC4)n3)c2c1` was 5.09

Note to self: pIC50 recorded for `NC1CCN(c2nc(O)cc(-c3n[nH]c4ccc(-c5c(F)cccc5F)cc34)n2)CC1` was 4.87

Note to self: pIC50 recorded for `c1cc2[nH]nc(-c3cncc(N[C@@H]4CCCNC4)n3)c2cc1-c1cncc(C2CC2)n1` was 5.25

Note to self: pIC50 recorded for `c1cc2[nH]nc(-c3cncc(O[C@H]4CCNCC45CC5)n3)c2cc1-c1cncc(C2CC2)n1` was 5.09

Note to self: pIC50 recorded for CC(O)c1cccc(-c2ccc3[nH]nc(-c4cncc(O[C@@H]5CCCNC5)n4)c3c2)c1 (stereo partly shown) was 5.06

# credit: patent US9090593B2
